- methodNotes: supercomplex reporter luminescence per Hoechst cell count – Hoechst nuclei count (AID 1645838);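 also: control cybrid cells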
- runParameters: Cells, luminescence/Hoechst cell count ratio, measured here: cell number, Hoechst nuclei count, library stock concentration (final well concentration not given) 10 mM
Out of some 2,000 compounds screened, about 100 (5%) were called active. What follows is part of a selection rich in actives, with near analogues and random picks from the rest.
Reported cell count values for the following molecules.

molecule: O=c1c(-c2ccc(O)cc2)coc2cc(O)cc(O)c12
cell count: 5450
//
molecule: CCC(C)(C)C(=O)OC1CC(C)C=C2C=CC(C)C(CCC3CC(O)CC(=O)O3)[C@H]21 (stereo partly specified)
cell count: 2650
//
molecule: Cn1cncc1[C@@](N)(c1ccc(Cl)cc1)c1ccc2c(c1)c(-c1cccc(Cl)c1)cc(=O)n2C
cell count: 3700
//
molecule: CC(=O)c1cccc(NC(=O)CN2CCc3cc4c(cc3C2)OCCCO4)c1
cell count: 4740
//
molecule: Cc1cc(N2CCOCC2)ccc1Nc1nc(NC2CCCCC2)c2[nH]cnc2n1
cell count: 2130
//
molecule: O=C(O)CCn1nnc2ccccc21
cell count: 7490
